Target: T1, human IL-4Rα (hIL-4Rα) monomeric protein (human, UniProt P24394 26-232, limits assumed)
T1 construct: also called hIL-4Rα antigen; barcoded hIL-4Rα
Assay: Biacore (SPR); negative log10 of Kd
value_type: negLog10Kd
Please reply with the value in numeric form only.

[[record]]
binder = "Table 1 Line # 46 antibody (SP_Plasma_cell) (antibody, human IgG4, V domains shown, Cloned with human IgG4/human Igk constants for Kd; barcode counts are of the source cell's own IgG) VH: EVQLEASGGDLVQPGRSLRLSCAASGFIFDDFGMHWVRQAPGKGLEWVSGISWNGGHIGYADSVKGRFTISRDNAKNSLYLQMNSLRAEDTALYYCAKEHSSSWYGFFDFWGRGTLVTVSS VL: DIQMTQSPSSLSASVGDRVTITCRASQGLSNSVAWYQQKPGQIPRLLISAAASLQSGVPSRFSGSGSGTDFTLTISRLQPEDVATYYCQNYNSAPRTFGQGTNVEIK"
assay_result = 7.31


Kindly review the next binder as well.
-- ask Note negLog10Kd for the binder shown: Table 1 Line # 21 antibody (SP_B_cell) (antibody, human IgG4, V domains shown, Cloned with human IgG4/human Igk constants for Kd; barcode counts are of the source cell's own IgG) VH: EVQLVESGGGVVRPGGSLRLSCAASGFTFDDYGMSWVRQAPGKGLEWVSGINWNGGSTGYADSVKGRFTMSRDNAKKSLYLQMNSLRAEDTAFYHCARDDSSSLYGYFQHWGQGTLVTVSS VL: DIQMTQSPSSLSASVGDRVTITCRASQGISIYLAWYQQKPGKVPKLLIYAASTLQSGVPSRFSGSGSGTDFTLTISSLQPEDVATYYCQNYNSAPRTFGQGTKVEIK
-- reply 6.75

Every entry's value here was drawn from patent US20230349919A1.
